Data origin: patent US20170052184A1

Molecular target: T1, HCV Core1-169 (hepatitis C virus (HCV-1), UniProt P26664 1-169)
T1 sequence: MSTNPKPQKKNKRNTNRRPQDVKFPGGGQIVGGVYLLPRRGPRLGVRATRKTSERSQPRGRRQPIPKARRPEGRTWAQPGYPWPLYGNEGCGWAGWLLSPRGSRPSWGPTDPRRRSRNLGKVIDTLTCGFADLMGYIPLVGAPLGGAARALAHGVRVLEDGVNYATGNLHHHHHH
Experiment: SPR sandwich, capture mAb C11-9
Please go through the items and note down their expected percent binding.
Numbers only, in %.

binder	expected percent binding [%]
HCV 208B-1094 (antibody, V domains shown) VH: EVQLQQSGPELVKPGASVKISCKTSGYTFTEYAMHWMKQSHGKSLEWIGGINPTNGDTIYNQRFKDKAKLTVDRSSSTAYMELRSLTSDDSALFYCARRELDYFASWGQGTTLTVSS VL: DIVLTQSPASLIVSLGQTATISCRASQSLSTSRFSYVHWIQQKPGQPPKLLIKYASNLESGVPVRFSGSGSGTDFTLNIHPVEEEDTATYFCQHSWEFPFTFGSGTKLKIKR	19.8

Please find the next binder below.
Output expected percent binding of HCV 208B-560 (antibody, V domains shown) VH: EVQLQQSGPELEKPGASVKISCKTSGYTFTEYAMHWVKQSHGMSLEWIGGINPSNGNAIYNQIFKDKATLTVDRSSSTAYMGLRSLTFGDSGVYFCVRRQLDFFDYWGQGASLTVSS VL: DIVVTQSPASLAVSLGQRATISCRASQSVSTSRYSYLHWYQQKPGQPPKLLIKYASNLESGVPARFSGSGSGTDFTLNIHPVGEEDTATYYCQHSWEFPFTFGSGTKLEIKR
8.3
